# System: M14 melanoma
# Assay details: NCI-60 one-dose screen, 48 h
# Run parameters: 10 µM unless noted
About 83,000 compounds went through this panel and 20% of them were active in at least one assay; those are over-represented in the sample as a whole. Active and inactive are the calls of the source. How the source made its calls: active means growth percent below 10; inactive means the rest.
Answer with one of the outcomes 1.0 for active, 0.0 for inactive

Molecule	Assigned class
N#Cc1c(N)nnn1Cc1cc(=O)oc2ccc(O)cc12	0.0

Continue with the next molecule.
Please state the recorded outcome for this molecule: `NC(N)=NC(N)=NCCCc1ccco1`
0.0

* * *

Assign growth to each entry below.
# Test system: MALME-3M melanoma
# Assay details: NCI-60 one-dose screen, 48 h (100 = growth as untreated, 0 = no growth, -100 = all killed)
# Run parameters: 10 µM unless noted
The panel holds about 83,000 compounds, 20% with a hit somewhere; the sample as a whole holds those more often.
Answers are plain numbers, in %.

Compound	Unit text	growth
CCOC(=O)c1nc2c3ccccc3cnn2c1C(=O)c1ccc(OC)cc1	%	102
CCN(CC)CC(=O)Nc1ccc2ncnc(Nc3ccc(Oc4cccc(F)c4)c(Cl)c3)c2c1	%	45.2
COC(=O)/C=C1/SC(=Nc2ccc([N+](=O)[O-])cc2)N(CCc2c[nH]c3ccccc23)C1=O	%	86.5
COCCOc1cc2ncnc(N3CCN(S(=O)(=O)c4ccccc4Cl)CC3)c2cc1OCCOC	%	67.9

# return growth for each item in the list
1. C/C=C(/C)C(=O)O[C@@H]1CC(C)(C)CC2C34OC(=O)[C@@]21CC[C@@]3(C)[C@]1(C)CCC2C(C)(C)C(=O)CC[C@]2(C)C1C[C@@H]4Cl (some centres undefined)
2. COc1cc(CNC(=O)CCCC/C=C/C(C)C)ccc1OCc1cn(-c2ccc([N+](=O)[O-])cc2)nn1
3. COc1cc(CO)cc2cc3ccccc3nc12
4. OCc1cc(CN2CCCCC2)c(O)c2ncccc12
5. Cc1ccc2[nH]c(=S)[nH]c(=O)c2c1

[90.8, 98.4, 112, 62.8, 102]

* * *

# System: SK-MEL-2 melanoma
# Assay details: NCI-60 one-dose screen, 48 h (100 = growth as untreated, 0 = no growth, -100 = all killed)
# Run parameters: 10 µM unless noted
Compounds without any hit were thinned out: in the full panel of roughly 83,000, 20% have a hit.
For each record, write down the corresponding growth.
Answers are plain numbers, in %.

Worked cases, growth given:
Compound	Value
NS(=O)(=O)c1ccc(C(=O)N=Nc2c(O)[nH]c3c(F)cccc23)cc1	104
CCCCC#Cc1c(/C=C(\CCCC)SCC)n(C)c(=O)[nH]c1=O	67.1
O=c1cc(N/N=C/c2ccc(F)cc2)c2cc(Cl)ccc2[nH]1	77.2
CC(C)(C)CC(N)=O	102

Please supply growth for each of the following items, keeping them in order.
1. CCC(=C(c1ccc(OCCCN(C)C)cc1)c1ccc(OCCCN(C)C)cc1)c1ccc(Cl)cc1
2. O=C(c1cccc(Br)c1)N1CCN(c2ccnc3cc(Cl)ccc23)CC1
3. CCN1C(=S)N(CC)C2C1NC(=S)N2/N=C/C=C/c1ccccc1 (stereo unspecified)
4. Cc1ccc(NC(=O)c2sc3nc(C)c(C(=O)c4ccccc4)cc3c2N)cc1
5. CCOC(=O)c1c(-c2ccc(OC)cc2)c(C#N)c2c(C#N)c(N)nn2c1N
6. CC1(Cc2ccccc2)CC2=C(C(=O)O1)C(c1ccccc1)NC(=O)N2 (stereo unspecified)
7. COc1ccc(Cn2cc(C(=O)Nc3cccnc3Nc3ccccc3)nn2)cc1
8. CCCn1nc(C(=O)N2CCCCC2)c2c1CCC(N1CCC(c3ccncc3)CC1)C2 (stereo unspecified)

-72.1
85.7
46.7
93.8
3.6
107
107
105

For each listed entry, give its growth.
1. O=C(CCl)n1nnnc1Cc1ccccc1
2. O=C1c2cc3c(cc2-c2c1c1ccc(Cl)cc1c(=O)n2CCCn1ccnc1)OCO3
3. Nc1nc(CSc2n[nH]c(N)n2)nc(Nc2ccccc2)n1
4. CCOC(=O)c1nnn(Cc2cc(=O)oc3c2ccc2ccccc23)c1C

1: 86.9; 2: 31.1; 3: 106; 4: 110

* * *

# Test system: CAKI-1 renal
# Assay details: NCI-60 one-dose screen, 48 h (100 = growth as untreated, 0 = no growth, -100 = all killed)
# Run parameters: 10 µM unless noted
Compounds without any hit were thinned out: in the full panel of roughly 83,000, 20% have a hit.
// No strictly below 70% in growth; Yes otherwise

Molecule	Assigned class
NC(N)=NC(N)=NCCCc1ccco1	Yes

# check: growth of `COc1ccc(Nc2ncnc3ccc(-c4cncc(NS(C)(=O)=O)c4)cc23)cc1Cl` is greater than or equal to 70%
Yes

Same read-out for COc1cccc(NC(=O)c2sc3nc(C)c(C(O)c4ccccc4)cc3c2N)c1 (stereo unspecified) ?
No

Now the molecule `Nn1c(-c2ccc(Cl)cc2)nc2c(-c3ccc(Cl)cc3)nc3ccc(Cl)cc3c2c1=O`
No

Now the molecule `COc1ccc(Oc2nc(Nc3ccc(N4CCOCC4)cc3)ncc2NC(=O)c2cc(OC)cc(OC)c2)cc1`
Yes

Now this one: O=C(/C=C/C12c3ccccc3C(c3ccccc31)C1C(=O)NC(=O)C12)c1ccncc1 (stereo unspecified)
No

Consider next the molecule `COc1ccc(-c2ccc(-c3ccc(C(=N)N)cn3)s2)cc1Cl` in the same way.
No

Same for `Nc1nc(Nc2cccnc2)sc1C(=O)c1ccccc1F`
No

Same read-out for `Nc1n[nH]c2cccc(C#Cc3cccc(C(=O)Nc4ccc(CN5CCOCC5)c(C(F)(F)F)c4)c3)c12` ?
Yes

Now the same for `Cc1ccc(-c2nc([P+](c3ccccc3)(c3ccccc3)c3ccccc3)c(Nc3ccccc3)o2)cc1`
No

* * *

# System: A549/ATCC NSCLC
# Assay details: NCI-60 one-dose screen, 48 h
# Run parameters: 10 µM unless noted
This is part of a sample that, as a whole, favours compounds with a hit. Of some 83,000 tested, about 20% had one in any assay. The source made the active and inactive calls. The calls were made as follows: active = growth percent below 10; inactive = the rest.
Classes to choose from: true (1) for active, false (0) for inactive

// below: answered compounds
OCc1cc(CN2CCCCC2)c(O)c2ncccc12 false (0)
O=C(Nc1ncc(Cc2cccc(C(F)(F)F)c2)s1)c1ccc2c(c1)OCCO2 false (0)
C=CCN1C=CC(=O)[C@H](O[Si](C)(C)C(C)(C)C)[C@@H]1/C=C/c1ccccc1 true (1)
CCCCCCCCCCCCC[C@H](O)C[C@H](O)[C@H](C)N false (0)
N#Cc1cc(-c2ccnc(Nc3ccc(NC(=O)CCl)cc3)n2)ccc1N1CCCC1 true (1)
CCNC(=S)n1nc(SC)c(C(=O)OCC)c1N false (0)
CCC(=C(c1ccc(OCCCN(C)C)cc1)c1ccc(OCCCN(C)C)cc1)c1ccc(Cl)cc1 true (1)
Nn1c(-c2ccc(Cl)cc2)nc2c(-c3ccc(Cl)cc3)nc3ccc(Cl)cc3c2c1=O true (1)

Test call, this compound: `COc1ccc(N2CCN(S(=O)(=O)c3oc(-c4ccccc4)nc3C#N)CC2)cc1`
false (0)

Could you do the same for `Cc1ccc2nc3ccccc3c(NCc3ccc(Cl)cc3)c2c1` , please?
false (0)

* * *

# System: SN12C renal
# Assay details: NCI-60 one-dose screen, 48 h (100 = growth as untreated, 0 = no growth, -100 = all killed)
# Run parameters: 10 µM
Compounds without any hit were thinned out: in the full panel of roughly 83,000, 20% have a hit.
Answer each item with its documented growth.
Answers are plain numbers, in %.

CC(=O)/C=C/c1ccc(OCc2ccc(C(C)(C)C)cc2)cc1 80

Take each entry in turn and give its growth.
1. CCN(Cc1ccccc1)c1ccc(/C=C2\COc3ccccc3C2=O)cc1
2. COc1ccc(C(=O)/C=C/c2ccc(OCc3cccc(C(F)(F)F)c3)c(OC)c2)cc1OC
3. CC(=O)/C=C/c1ccc(OCc2ccc(Cl)cc2)cc1
4. COc1ccc(C(=O)/C=C/c2ccc(OCc3ccc(Cl)cc3)cc2)cc1OC

1: 94.5; 2: 97; 3: 102; 4: 107

Query the reported growth for SN12C renal; item: `O=C(/C=C/c1cccc(Oc2ccc(Cl)cc2)c1)c1ccccc1`
111

* * *

# System: SF-295 CNS
# Assay details: NCI-60 one-dose screen, 48 h (100 = growth as untreated, 0 = no growth, -100 = all killed)
# Run parameters: 10 µM unless noted
The panel holds about 83,000 compounds, 20% with a hit somewhere; the sample as a whole holds those more often.
Observable: growth (%)
One number for each entry, in %.

Before answering, review these 5 worked examples.
Molecule	growth, %
O=C(CCCOc1ccc(Br)cc1)Nc1ncc(Cc2ccc(F)cc2)s1	68.9
FC(F)(F)Sc1ccc(/C=C/c2cc(/C=C/c3ccc(SC(F)(F)F)cc3)n(-c3ccccc3)n2)cc1	96.6
O=C1OCC2=C1C(c1cccc(C(F)(F)F)c1)c1cc3c(cc1N2CCO)OCCO3 (centres undefined)	0.743
CN(Cc1ccccc1)c1nc(Cl)c(C2CC(c3ccc4c(c3)OCO4)=NN2c2cc(Cl)cc(Cl)c2)s1 (centres undefined)	93.8
COc1ccc(C/C(C)=C(/c2ccc(OCCN3CCCC3)cc2)c2ccc(OC(=O)NCc3ccccc3)cc2)cc1	95.2

// for each molecule in input: emit growth
1. CC/C(=C(/c1ccc(O)cc1)c1ccc(OCCN2CCCCCC2)cc1)c1ccc(Cl)cc1
2. Cn1cc(C2=C(c3cccc4ccccc34)C(=O)NC2=O)c2cc(Br)ccc21
3. Cc1cnc(C(=O)NNc2nc3sc4c(c3c(=O)[nH]2)C(C)CCC4)cn1 (centres undefined)
4. CCOC(=O)CCCn1c(-c2ccccc2)cc(-c2ccccc2)c(C#N)c1=O

1. 87.8
2. 102
3. 23.4
4. 69.2
